# Tested on: Klebsiella pneumoniae ATCC 33495
# ASSAY TEXT: MIC determination
# Format: cell-based
# CONDITION DESCRIPTION: Klebsiella pneumoniae, ATCC33495; K. pneumonia 33495; 18 hours at 37° C.; read-out: Minimum inhibitory concentrations (MIC)
Under this convention, yes (1) denotes MIC strictly below 4 µg/mL and no (0) denotes MIC at or above 4 µg/mL.

# count of solved cases: 5
COMPOUND	GROUP
NC[C@H]1O[C@H](O[C@H]2[C@H](O)[C@@H](O[C@H]3O[C@H](CO)[C@@H](O)[C@H](N)[C@H]3O)[C@H](N)C[C@@H]2N)[C@H](N)C[C@@H]1O	yes (1)
CCN1CCN(C(=O)N[C@@H](C(=O)N[C@@H]2C(=O)N3[C@@H]2SC(C)(C)[C@@H]3C(=O)O)c2ccccc2)C(=O)C1=O	no (0)
NC(=O)c1cc[n+](CC2=C(C(=O)O)N3C(=O)[C@@H](NC(=O)[C@@H](c4ccccc4)S(=O)(=O)[O-])[C@H]3SC2)cc1	no (0)
CO[C@H]1/C=C/O[C@@]2(C)Oc3c(C)c(O)c4c(O)c(c(/C=N/N5CCN(C)CC5)c(O)c4c3C2=O)NC(=O)/C(C)=C\C=C\[C@H](C)[C@H](O)[C@@H](C)[C@@H](O)[C@@H](C)[C@H](OC(C)=O)[C@@H]1C	no (0)
Cc1cc(NS(=O)(=O)c2ccc(N)cc2)no1 [Sulfamethoxazole, N1-(5-methyl-3-isoxazolyl)sulfanilamide]	no (0)

For this compound, is MIC lower than 4 µg/mL? `CCn1cc(C(=O)O)c(=O)c2cc(F)c(N3CCNCC3)cc21` yes (1)

Just wondering, is MIC of `Nc1ccc(S(=O)(=O)Nc2ncccn2)cc1` below 4 µg/mL? no (0)

Would you kindly verify if MIC of `[H]/N=C(/N)N[C@H]1[C@H](O)[C@@H](O)[C@H](O[C@@H]2O[C@@H](C)[C@](O)(C=O)[C@H]2O[C@@H]2O[C@@H](CO)[C@H](O)[C@@H](O)[C@@H]2NC)[C@@H](N/C(N)=N\[H])[C@@H]1O` is strictly less than 4 µg/mL? no (0)
